Please provide measured kon for the entries that follow.
Molecular target: T1, human ST2L extracellular domain with C-terminal His6 tag (human, UniProt Q01638 19-328)
T1 construct: also called huST2L-ECD; ST2L-ECD
T1 sequence: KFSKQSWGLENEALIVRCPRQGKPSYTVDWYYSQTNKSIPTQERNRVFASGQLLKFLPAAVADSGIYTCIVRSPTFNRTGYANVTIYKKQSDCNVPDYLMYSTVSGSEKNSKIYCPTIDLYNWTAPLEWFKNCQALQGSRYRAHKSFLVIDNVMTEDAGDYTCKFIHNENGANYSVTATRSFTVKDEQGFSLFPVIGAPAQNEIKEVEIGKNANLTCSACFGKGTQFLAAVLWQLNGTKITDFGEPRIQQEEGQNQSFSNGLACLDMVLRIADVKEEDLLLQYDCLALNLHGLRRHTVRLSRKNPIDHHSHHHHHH
Assay: SPR, mAb captured, ST2L-ECD in solution
Enter your answer as a number in M⁻¹ s⁻¹; do not include the unit.

Please supply the value of reported kon for the item STLM220 (antibody, V domains shown, frameworks VH3-23 / Vk-L6) VH: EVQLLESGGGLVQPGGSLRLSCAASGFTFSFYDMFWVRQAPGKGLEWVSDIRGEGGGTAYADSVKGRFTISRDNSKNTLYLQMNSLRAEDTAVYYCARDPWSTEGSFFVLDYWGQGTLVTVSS VL: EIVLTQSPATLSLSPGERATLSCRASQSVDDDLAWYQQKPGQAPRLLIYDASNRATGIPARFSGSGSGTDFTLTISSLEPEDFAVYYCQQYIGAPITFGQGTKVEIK
5.8e+06

Determine its reported kon: STLM214 (antibody, V domains shown, frameworks VH3-23 / Vk-L6) VH: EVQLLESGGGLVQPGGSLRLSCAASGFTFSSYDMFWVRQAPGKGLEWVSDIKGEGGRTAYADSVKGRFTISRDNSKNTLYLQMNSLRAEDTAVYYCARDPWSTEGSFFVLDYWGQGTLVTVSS VL: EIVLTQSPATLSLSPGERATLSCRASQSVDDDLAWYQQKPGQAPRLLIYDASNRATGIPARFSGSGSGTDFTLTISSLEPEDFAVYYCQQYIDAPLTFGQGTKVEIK
9.16e+06

Give a short answer stating reported kon for STLM232 (antibody, V domains shown, VH STLH201 + VL STLL272) VH: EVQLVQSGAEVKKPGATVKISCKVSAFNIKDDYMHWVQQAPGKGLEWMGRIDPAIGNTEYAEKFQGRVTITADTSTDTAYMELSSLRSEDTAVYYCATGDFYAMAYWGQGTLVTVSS VL: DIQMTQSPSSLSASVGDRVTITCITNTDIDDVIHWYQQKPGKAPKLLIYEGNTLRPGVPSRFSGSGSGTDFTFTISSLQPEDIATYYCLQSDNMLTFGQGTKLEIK .
1.78e+07

Input STLM210 (antibody, V domains shown, frameworks VH3-23 / Vk-L6) VH: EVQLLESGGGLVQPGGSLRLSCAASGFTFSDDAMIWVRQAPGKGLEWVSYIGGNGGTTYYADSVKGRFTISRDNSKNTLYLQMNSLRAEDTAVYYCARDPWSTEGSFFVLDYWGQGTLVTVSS VL: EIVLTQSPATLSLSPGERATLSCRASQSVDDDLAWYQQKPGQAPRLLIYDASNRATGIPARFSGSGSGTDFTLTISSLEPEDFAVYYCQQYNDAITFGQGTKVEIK , output reported kon.
1.21e+07

Provide only the value of recorded kon for STLM123 (antibody, V domains shown, frameworks VH3-23 / Vk-L6) VH: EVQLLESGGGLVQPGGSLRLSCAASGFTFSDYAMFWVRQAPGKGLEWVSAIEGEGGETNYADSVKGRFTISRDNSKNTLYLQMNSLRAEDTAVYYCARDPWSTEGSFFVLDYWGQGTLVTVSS VL: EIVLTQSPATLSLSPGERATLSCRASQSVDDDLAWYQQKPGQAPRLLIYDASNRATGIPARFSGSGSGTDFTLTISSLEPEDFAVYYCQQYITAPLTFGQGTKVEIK
1.37e+07

Read off the recorded kon for STLM108 (antibody, V domains shown, frameworks VH3-23 / Vk-L6) VH: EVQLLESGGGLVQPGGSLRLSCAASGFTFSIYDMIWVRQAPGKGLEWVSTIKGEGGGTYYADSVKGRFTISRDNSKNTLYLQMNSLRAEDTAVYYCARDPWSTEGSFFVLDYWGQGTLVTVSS VL: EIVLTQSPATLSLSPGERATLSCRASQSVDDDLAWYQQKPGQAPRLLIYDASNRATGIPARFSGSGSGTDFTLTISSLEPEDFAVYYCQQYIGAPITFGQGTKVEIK
2.29e+06

Let me know recorded kon for STLM211 (antibody, V domains shown, frameworks VH3-23 / Vk-L6) VH: EVQLLESGGGLVQPGGSLRLSCAASGFTFSGYAMIWVRQAPGKGLEWVSYIEGEGGETYYADSVKGRFTISRDNSKNTLYLQMNSLRAEDTAVYYCARDPWSTEGSFFVLDYWGQGTLVTVSS VL: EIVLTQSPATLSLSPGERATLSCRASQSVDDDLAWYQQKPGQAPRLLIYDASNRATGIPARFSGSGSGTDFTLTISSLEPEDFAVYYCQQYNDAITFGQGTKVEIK , thanks.
1.7e+07

Supply recorded kon for STLM227 (antibody, V domains shown, VH STLH201 + VL STLL277) VH: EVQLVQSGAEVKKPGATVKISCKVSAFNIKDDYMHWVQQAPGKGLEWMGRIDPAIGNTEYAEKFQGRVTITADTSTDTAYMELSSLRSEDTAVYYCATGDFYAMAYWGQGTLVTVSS VL: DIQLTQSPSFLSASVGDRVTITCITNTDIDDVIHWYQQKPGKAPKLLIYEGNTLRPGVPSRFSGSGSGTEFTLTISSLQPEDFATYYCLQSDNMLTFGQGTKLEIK here.
2.66e+07

Please report kon for the following binder: STLM107 (antibody, V domains shown, frameworks VH3-23 / Vk-L6) VH: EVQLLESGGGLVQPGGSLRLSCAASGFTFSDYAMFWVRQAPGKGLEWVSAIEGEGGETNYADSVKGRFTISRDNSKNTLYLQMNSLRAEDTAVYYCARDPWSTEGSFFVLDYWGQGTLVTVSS VL: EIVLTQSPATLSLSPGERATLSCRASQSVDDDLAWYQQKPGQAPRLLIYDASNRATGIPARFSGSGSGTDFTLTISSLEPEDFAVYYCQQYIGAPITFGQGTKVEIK
2.9e+07

Please report the measured kon for STLM217 (antibody, V domains shown, frameworks VH3-23 / Vk-L6) VH: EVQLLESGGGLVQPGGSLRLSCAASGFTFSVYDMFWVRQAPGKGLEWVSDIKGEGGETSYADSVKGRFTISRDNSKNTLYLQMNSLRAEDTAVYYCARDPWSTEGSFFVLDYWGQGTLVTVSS VL: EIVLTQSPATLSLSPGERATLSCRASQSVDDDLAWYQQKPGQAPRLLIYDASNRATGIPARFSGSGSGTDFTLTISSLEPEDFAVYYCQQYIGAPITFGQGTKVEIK
7.27e+06

Tell me its kon given STLM212 (antibody, V domains shown, frameworks VH3-23 / Vk-L6) VH: EVQLLESGGGLVQPGGSLRLSCAASGFTFSVYDMIWVRQAPGKGLEWVSTIRGEGGGTYYADSVKGRFTISRDNSKNTLYLQMNSLRAEDTAVYYCARDPWSTEGSFFVLDYWGQGTLVTVSS VL: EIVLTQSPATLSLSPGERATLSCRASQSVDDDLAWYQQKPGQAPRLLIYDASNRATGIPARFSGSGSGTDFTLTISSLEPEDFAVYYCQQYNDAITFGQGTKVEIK as the entry.
1.24e+07
